pKi: −log10 of the molar value.
Reported pKi on 5-hydroxytryptamine receptor 6 (Homo sapiens, UniProt P50406) for assorted molecules, compiled from publications.
Sequence (P50406 whole entry): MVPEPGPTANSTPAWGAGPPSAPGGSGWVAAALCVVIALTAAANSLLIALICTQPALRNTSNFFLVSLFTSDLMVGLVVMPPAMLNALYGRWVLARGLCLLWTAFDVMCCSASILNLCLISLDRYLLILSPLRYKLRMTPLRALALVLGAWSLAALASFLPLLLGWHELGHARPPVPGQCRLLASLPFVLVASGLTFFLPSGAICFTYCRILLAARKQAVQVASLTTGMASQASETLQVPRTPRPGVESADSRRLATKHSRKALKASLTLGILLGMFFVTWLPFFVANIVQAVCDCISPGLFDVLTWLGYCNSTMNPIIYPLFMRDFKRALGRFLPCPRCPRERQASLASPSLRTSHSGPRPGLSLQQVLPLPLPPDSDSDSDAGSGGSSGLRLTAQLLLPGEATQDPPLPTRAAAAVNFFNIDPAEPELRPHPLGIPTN
REPORTED ENDPOINT: pKi

Known pKi results, listed for orientation:
[
  {
    "MOLECULE": "CCN/C(=N\\S(=O)(=O)c1c(Cl)cccc1Cl)N1CC(CC)C=N1 (stereo unspecified)",
    "pKi": 6.71
  },
  {
    "MOLECULE": "O=S(=O)(c1cccc2ncccc12)N1CCC(CCN2CCN(c3ccccc3)CC2)CC1",
    "pKi": 5.17
  },
  {
    "MOLECULE": "O=S(=O)(c1cccc2ncccc12)N1CCC(CCN2CCN(c3ccc(Cl)cc3)CC2)CC1",
    "pKi": 5.99
  },
  {
    "MOLECULE": "CCC(Oc1cc(Cl)cc(Cl)c1)c1nc(Nc2ccncc2)nc(N2CCN(C)CC2)n1 (stereo unspecified)",
    "pKi": 7.18
  },
  {
    "MOLECULE": "CNc1nn2cccnc2c1S(=O)(=O)c1ccc(F)cc1",
    "pKi": 7.93
  },
  {
    "MOLECULE": "O=C1c2cccc3cccc(c23)N1CCCCCCN1CCN(c2ccccc2Cl)CC1",
    "pKi": 5.77
  }
]

I: Cc1ccc(C(CCNC(C)c2ccc(Cl)cc2)c2ccco2)cc1 (stereo unspecified)
II: O=S1(=O)c2cccc3cccc(c23)N1CCCCCCN1CCN(c2cccc(C(F)(F)F)c2)CC1
III: NCCC(=O)Nc1ccc2c(S(=O)(=O)c3cccc4ccccc34)n[nH]c2c1
IV: Cc1ccccc1Sc1ccc2c(c1)N1CCNCC1C2 (stereo unspecified)
List these items ordered by pKi, big to small. Please write the labels in the order that was asked for. III, IV, II, I
(III: 7.62, IV: 7.09, II: 6.43, I: 5.60)

* * *

pKi: −log10 of the molar value.
Reported pKi on 5-hydroxytryptamine receptor 6 (Homo sapiens, UniProt P50406) for assorted molecules, compiled from publications.
REPORTED ENDPOINT: pKi

Known pKi results, listed for orientation:
[
  {
    "MOLECULE": "CN(C)[C@H]1CCN(c2ccc3[nH]nc(S(=O)(=O)c4cccc5ccccc45)c3c2)C1",
    "pKi": 7.61
  },
  {
    "MOLECULE": "CNc1cc(NC)c2ccn(S(=O)(=O)c3ccccc3)c2c1",
    "pKi": 7.59
  },
  {
    "MOLECULE": "COc1cccc(S(=O)(=O)n2c3c(c4ccccc42)CCN(CCc2ccccc2)CC3)c1",
    "pKi": 6.30
  },
  {
    "MOLECULE": "CN1CCN(Cc2cccc3c(=O)c4ccc(Cl)cc4oc23)CC1.Cl.Cl.Cl",
    "pKi": 4.71
  },
  {
    "MOLECULE": "O=C(CCN1CCCCC1)Nc1cccc2c(S(=O)(=O)c3cccc4ccccc34)n[nH]c12",
    "pKi": 7.62
  },
  {
    "MOLECULE": "CN(C)CCc1c2n(c3ccccc13)S(=O)(=O)c1ccccc1-2",
    "pKi": 6.84
  },
  {
    "MOLECULE": "CN1CCN(c2nc(N)nc(Cc3ccccc3F)n2)CC1",
    "pKi": 7.06
  },
  {
    "MOLECULE": "COc1ccc(S(=O)(=O)N2CC(C(=O)NCCCN3CCOCC3)c3ccccc32)c2ccccc12 (racemic)",
    "pKi": 7.50
  },
  {
    "MOLECULE": "C[C@@H]1NC(NCC(F)F)=Nc2cccc(Cl)c21",
    "pKi": 5.35
  },
  {
    "MOLECULE": "CSc1nn2c(C)cc(C)nc2c1S(=O)(=O)c1cccc(F)c1",
    "pKi": 8.97
  }
]

A: CCN/C(=N\S(=O)(=O)c1ccc2[nH]c(C(F)(F)F)cc2c1)N1CC(C)(C)C=N1
B: Cc1nc(C)c(S(=O)(=O)n2cc(C3=CCCNC3)c3ccccc32)o1
Hi team, can someone confirm which has the larger pKi: A or B ? Thanks. Give the chosen item's label as your response. B
(B: 7.24, A: 6.80)

a: CN[C@@H]1c2cc3ccn(S(=O)(=O)c4ccccc4)c3cc2[C@H]1CCO (relative stereo)
b: O=C(c1ccc(F)cc1)C1CCN(CCc2ccc(F)cc2)CC1
c: O=S(=O)(c1cn(C2CCNC2)c2ccccc12)c1cccc2cccnc12 (stereo unspecified)
d: CCN1CCN(c2cn(S(=O)(=O)c3ccccc3Br)c3ccc(Cl)cc23)CC1
List these items ordered by pKi, big to small. Please write the labels in the order that was asked for. c, a, d, b

* * *

Reported Ki on 5-hydroxytryptamine receptor 6 (Homo sapiens, UniProt P50406) for assorted molecules, compiled from publications.
REPORTED ENDPOINT: Ki (µM)

[
  {
    "MOLECULE": "CCN=C(NS(=O)(=O)c1cccc(Cl)c1)N1N=CCC1c1ccc(F)cc1 (racemic)",
    "TARGET OR TEST SYSTEM": "5-hydroxytryptamine receptor 6 (Homo sapiens, UniProt P50406)",
    "RECORDED VALUE": 0.138
  },
  {
    "MOLECULE": "CCN1CCCC(n2cc(S(=O)(=O)c3cccc(F)c3)c3cc(OC)ccc32)C1 (stereo not given)",
    "TARGET OR TEST SYSTEM": "5-hydroxytryptamine receptor 6 (Homo sapiens, UniProt P50406)",
    "RECORDED VALUE": 0.016
  },
  {
    "MOLECULE": "COc1c(OCCF)cccc1[C@H](O)C1CCN(CCc2ccc(F)cc2)CC1",
    "TARGET OR TEST SYSTEM": "5-hydroxytryptamine receptor 6 (Homo sapiens, UniProt P50406)",
    "RECORDED VALUE": 3.84
  },
  {
    "MOLECULE": "CC(C)c1ccc(S(=O)(=O)n2cc(N3CCN(C)CC3)c3ccccc32)cc1",
    "TARGET OR TEST SYSTEM": "5-hydroxytryptamine receptor 6 (Homo sapiens, UniProt P50406)",
    "RECORDED VALUE": 0.0034
  },
  {
    "MOLECULE": "CC(C)CS(=O)(=O)n1ccc2c(-c3ccc(OCc4ccccc4)cc3)cc(N3CCN(C)CC3)nc21",
    "TARGET OR TEST SYSTEM": "5-hydroxytryptamine receptor 6 (Homo sapiens, UniProt P50406)",
    "RECORDED VALUE": 0.29
  },
  {
    "MOLECULE": "O=S(=O)(c1cccc(F)c1)c1n[nH]c2ccc(NC3CCNCC3)cc12",
    "TARGET OR TEST SYSTEM": "5-hydroxytryptamine receptor 6 (Homo sapiens, UniProt P50406)",
    "RECORDED VALUE": 0.0067
  },
  {
    "MOLECULE": "COc1ccc(NS(=O)(=O)c2ccc(-c3ncc(-c4ccc(N(C)C)cc4)o3)cc2)cc1N1CCNCC1",
    "TARGET OR TEST SYSTEM": "5-hydroxytryptamine receptor 6 (Homo sapiens, UniProt P50406)",
    "RECORDED VALUE": 0.523
  },
  {
    "MOLECULE": "COc1cc(N)cc(NS(=O)(=O)c2ccc(N)cc2)c1",
    "TARGET OR TEST SYSTEM": "5-hydroxytryptamine receptor 6 (Homo sapiens, UniProt P50406)",
    "RECORDED VALUE": 0.0398
  }
]

a: CCN1CCN(c2cn(S(=O)(=O)c3ccc(OC)cc3)c3cc(Cl)ccc23)CC1
b: O=C1CCc2ccc(OCCCCN3CC=C(c4cn(S(=O)(=O)c5ccccc5)c5ccccc45)CC3)cc2N1
Hi team, can someone confirm which has the larger Ki: a or b ? Thanks. Give the chosen item's label as your response. a
(a: 0.0823 µM, b: 0.052 µM)

* * *

Reported Ki on 5-hydroxytryptamine receptor 6 (Homo sapiens, UniProt P50406) for assorted compounds, compiled from publications.
REPORTED ENDPOINT: Ki (nM)

[
  {
    "COMPOUND": "CN1CCC(n2cc(S(=O)(=O)c3cccc4cccnc34)c3ccccc32)C1 (stereo not given)",
    "Ki, nM": 2.8
  }
]

A: COc1ccc2c(c1)c1c(n2S(=O)(=O)c2ccc(N)cc2)CCCC1CN(C)C (stereo not given)
B: O=C1c2cccc3cccc(c23)N1CCCCCCN1CCN(c2ccc(Br)cc2)CC1
C: O=S(=O)(c1ccccc1)c1cn(C2CCN(Cc3ccccc3)C2)c2ccccc12 (stereo not given)
D: O=C1c2ccccc2S(=O)(=O)N1CCCCCCN1CCN(c2ccccc2F)CC1
List these items ordered by Ki, big to small. Please write the labels in the order that was asked for. B, D, C, A
